biological target: UniProt Q13177; test: radiometric filter-binding kinase assay, Kinase HotSpot; details: compound 0.5 µM; ATP 10 µM
Sequence (Q13177 whole entry, looked up): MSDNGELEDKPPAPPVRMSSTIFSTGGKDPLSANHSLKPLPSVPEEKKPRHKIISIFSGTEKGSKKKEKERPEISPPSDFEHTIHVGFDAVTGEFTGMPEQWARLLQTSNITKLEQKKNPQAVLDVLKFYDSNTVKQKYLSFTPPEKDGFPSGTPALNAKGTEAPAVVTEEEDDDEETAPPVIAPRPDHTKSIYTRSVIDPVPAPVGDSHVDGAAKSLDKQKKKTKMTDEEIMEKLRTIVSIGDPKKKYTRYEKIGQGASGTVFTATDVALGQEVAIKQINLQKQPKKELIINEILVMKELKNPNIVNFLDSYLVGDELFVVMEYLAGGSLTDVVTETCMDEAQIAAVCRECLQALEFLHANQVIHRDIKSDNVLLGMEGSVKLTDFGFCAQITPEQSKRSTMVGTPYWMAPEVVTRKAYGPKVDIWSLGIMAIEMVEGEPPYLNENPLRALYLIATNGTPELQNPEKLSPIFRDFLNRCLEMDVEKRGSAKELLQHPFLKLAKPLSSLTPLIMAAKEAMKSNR
Listed below: residual activity values for each entry.
Measured metric: residual activity

[[record]]
item_smiles = "O=C(CCCc1ccc(-c2ccccc2F)cc1)Nc1ccc(O)cc1"
assay_value = "101%"

[[record]]
item_smiles = "CN([C@@H](Cc1ccc(OS(=O)(=O)c2cccc3cnccc23)cc1)C(=O)N1CCN(c2ccccc2)CC1)S(=O)(=O)c1cccc2cnccc12"
assay_value = "99.1%"

[[record]]
item_smiles = "COc1cc2ncnc(N3CCN(C(=O)Nc4ccc(Oc5ccccc5)cc4)CC3)c2cc1OC"
assay_value = "104%"

[[record]]
item_smiles = "CC(C)c1nn(-c2c(Cl)cccc2Cl)c2nc(Cc3ccc(OCCO)cc3)nc(O)c12"
assay_value = "95.6%"

[[record]]
item_smiles = "CCn1cnc2c(Nc3cccc(Cl)c3)nc(N[C@@H]3CCCC[C@@H]3N)nc21"
assay_value = "93.9%"

